All values here come from ChEMBL document CHEMBL1145338.

- experiment_description: Clearance in Sprague-Dawley rat at 1 mg/kg, iv
- Format: ADME, organism-based
- Parameters: dose 1 mg/kg, route intravenous
- run_conditions: in vivo
reported_metric: clearance (mL/min/kg)

> print(dat)
                            compound.smiles  unit.string  measurement
1  COc1ccc(N(C(=O)Oc2c(C)cccc2C)c2ccnc(Nc3cc(OC)c(OCCCN4CCN(C)CC4)c(OC)c3)n2)c(OC)c1    mL/min/kg         30.5

###

Recorded IC50 for the following compounds
- target_entity: Proto-oncogene tyrosine-protein kinase Src (Homo sapiens)
- Sequence (P12931 2-536 limits assumed): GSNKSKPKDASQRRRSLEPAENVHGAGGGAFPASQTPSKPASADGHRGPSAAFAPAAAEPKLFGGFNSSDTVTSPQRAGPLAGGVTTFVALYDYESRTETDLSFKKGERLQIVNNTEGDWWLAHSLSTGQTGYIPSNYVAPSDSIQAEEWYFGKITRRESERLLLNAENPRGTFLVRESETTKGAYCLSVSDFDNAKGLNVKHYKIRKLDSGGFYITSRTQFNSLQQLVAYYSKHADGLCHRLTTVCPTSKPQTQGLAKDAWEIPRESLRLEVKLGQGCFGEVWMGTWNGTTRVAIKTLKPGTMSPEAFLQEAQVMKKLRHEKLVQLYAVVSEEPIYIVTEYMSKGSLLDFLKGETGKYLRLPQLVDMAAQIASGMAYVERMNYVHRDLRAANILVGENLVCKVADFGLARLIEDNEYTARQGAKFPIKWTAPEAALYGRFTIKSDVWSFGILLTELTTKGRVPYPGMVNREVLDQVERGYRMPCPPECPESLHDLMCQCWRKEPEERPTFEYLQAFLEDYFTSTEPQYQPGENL
reported_metric: IC50 (nM)

> print(dat)
                            compound.smiles  reported.metric  measurement
1  Cc1cccc(C)c1OC(=O)N(c1ccnc(Nc2ccc(N3CCN(C)CC3)cc2)n1)c1ccc(F)cc1OC(C)C             IC50           13
2  COc1ccc(N(C(=O)Oc2c(C)cccc2C)c2ccnc(Nc3ccc(N4CCN(C)CC4)c(OC)c3)n2)c(OC)c1             IC50            2
3  Cc1cccc(C)c1OC(=O)N(c1cccc(-c2ccccc2)c1)c1ccnc(Nc2ccc(N3CCN(C)CC3)cc2)n1             IC50          500
4  COc1ccc(N(C(=O)Oc2c(C)cccc2C)c2ccnc(Nc3ccc(OCCCN4CCN(C)CC4)c(F)c3)n2)c(OC)c1             IC50            5
5  Cc1cccc(C)c1OC(=O)N(c1ccccc1)c1ccnc(Nc2ccc(N3CCN(C)CC3)cc2)n1             IC50           10
6  COc1ccc(N(C(=O)Oc2c(C)cccc2C)c2ccnc(Nc3ccc(N4CCN(C)CC4)cc3)n2)cc1             IC50            3
7  COc1ccc(N(C(=O)Oc2c(C)cccc2C)c2ccnc(Nc3ccc(N4CCN(C)CC4)cc3)n2)c(OC)c1             IC50            6
8  COc1ccc(N(C(=O)Oc2c(C)cccc2C)c2ccnc(Nc3ccc(OCCCN4CCN(C)CC4)c(OC)c3)n2)c(OC)c1             IC50            2
